Data provenance: patent US20240408119A1

- Assay procedure: Plasma Stability Assay (Example A3), rat plasma
- Format: in vitro ADME
- Experimental setup: prodrug remaining, 10 μM, 37° C., 0 min
- Description: The data is represented in the table below.
Readout: Rat Plasma Prodrug (%)

Compound | Observed
COc1ccc([C@@]23CCC(OP4(=O)OCC(C)(C)CO4)=C[C@@H]2N(C)CC3)cc1OC [Compound 323] | 100.00
COc1ccc([C@@]23CCC(OP(=O)(O)OCOC(=O)OC(C)C)=C[C@@H]2N(C)CC3)cc1OC [Compound 410] | 100.0
COc1ccc([C@@]23CCC(OP4(=O)OC(C)CC(C)O4)=C[C@@H]2N(C)CC3)cc1OC (stereo partly shown) [Compound 423] | 100.00
COc1ccc([C@@]23CCC(OP4(=O)OCCCO4)=C[C@@H]2N(C)CC3)cc1OC [Compound 422] | 100.0
COc1ccc([C@@]23CCC(OP(=O)(O)OCOC(=O)C(C)(C)C)=C[C@@H]2N(C)CC3)cc1OC [Compound 409] | 100.0
COc1ccc([C@@]23CCC(OP(=O)(OC(C)C)OC(C)C)=C[C@@H]2N(C)CC3)cc1OC [Compound 321] | 100.0
COc1ccc([C@@]23CCC(OP(=O)(O)OCOC(=O)C(C)C)=C[C@@H]2N(C)CC3)cc1OC [Compound 408] | 100.0
